# IC50 per entry
Molecular target: BRD4(1) bromodomain (Homo sapiens)
Construct: final concentrations of His-BRD4(1) at 20 nM
Assay: AlphaScreen in vitro binding assay with BRD4
Conditions: isolated BRD4 bromodomain, means of at least two determinations
Description: To determine the binding selectivity of compounds provided, AlphaScreen in vitro binding assays were performed with either CBP or BRD4. Assays were performed with minor modifications from the manufacturer's protocol (Perkin Elmer, USA). All reagents were diluted in AlphaScreen™ buffer (50 mM HEPES, 150 mM NaCl, 0.01% v/v Tween-20, 0.1% w/v BSA, pH 7.4). […] The plates were then incubated at room temperature for 1 hour and read on an Envision 2104 (PerkinElmer) using the manufacturer's protocol. […]
Return type: number; implicit unit µM.

Cc1noc(C)c1-c1ccn2c(NC3CCCCC3)c(CCc3ccc(OC(C)C)cc3)nc2c1: 8.18
COc1ccc(CCc2nc3cc(-c4c(C)noc4C)ccn3c2NC23CC4CC(CC(C4)C2)C3)cc1: 7.11
Cc1[nH]nc2ccc(-c3ccn4c(NC5CCCCC5)c(CCc5ccccc5)nc4c3)cc12: 0.51
COc1ccc(CCc2nc3cc(-c4c(C)noc4C)ccn3c2NCC(=O)OC(C)(C)C)cc1: 4.22
COc1ccc(CCCc2nc3cc(-c4c(C)noc4C)ccn3c2NC2CCCCC2)cc1: 12.3
COc1ccc(CCc2nc3cc(-c4c(C)noc4C)ccn3c2NC2CCCCC2)cc1OC: 6.22
COc1ccc(CCc2nc3cc(-c4c(C)noc4C)ccn3c2NC(C)C)cc1OC: 22.6

Task: Data request, read-out IC50, for "COc1ccc(CCc2nc3cc(-c4c(C)noc4C)ccn3c2NC2CCCCC2)cc1"
Output: 6.59
